Tested on: Staphylococcus aureus
Assay: Antibacterial activity against 10^4 to 10^5 CFU methicillin-susceptible Staphylococcus aureus after 18 hrs by CLSI 2-fold agar dilution method
Type: functional
This listing pairs molecules with measured MIC50.
The answer is to be given in µg/mL; state only the numeric part.

Worked cases, answers included:
>  <molecule>
CN1CCN(c2ccc(N3C[C@H](CO)OC3=O)cc2F)C=N1 [DELPAZOLID]

>  <recordedMetric>
MIC50

>  <units>
µg/mL

>  <valueMeasured>
1

$$$$
>  <molecule>
CC(=O)NC[C@H]1CN(c2ccc(N3CCOCC3)c(F)c2)C(=O)O1 [LINEZOLID]

>  <recordedMetric>
MIC50

>  <units>
µg/mL

>  <valueMeasured>
2

$$$$
>  <molecule>
CO/N=C1\CN(c2nc3c(cc2F)c(=O)c(C(=O)O)cn3C2CC2)CC1CN (stereo unspecified) [GEMIFLOXACIN]

>  <recordedMetric>
MIC50

>  <units>
µg/mL

>  <valueMeasured>
0.015

$$$$
>  <molecule>
CN[C@H](CC(C)C)C(=O)N[C@H]1C(=O)N[C@@H](CC(N)=O)C(=O)N[C@H]2C(=O)N[C@H]3C(=O)N[C@H](C(=O)N[C@H](C(=O)O)c4cc(O)cc(O)c4-c4cc3ccc4O)[C@H](O)c3ccc(c(Cl)c3)Oc3cc2cc(c3O[C@@H]2O[C@H](CO)[C@@H](O)[C@H](O)[C@H]2O[C@H]2C[C@](C)(N)[C@H](O)[C@H](C)O2)Oc2ccc(cc2Cl)[C@H]1O [VANCOMYCIN]

>  <recordedMetric>
MIC50

>  <units>
µg/mL

>  <valueMeasured>
1

$$$$

For record CC[C@H]1OC(=O)[C@H](C)[C@@H](O[C@H]2C[C@@](C)(OC)[C@@H](O)[C@H](C)O2)[C@H](C)[C@@H](O[C@@H]2O[C@H](C)C[C@H](N(C)C)[C@H]2O)[C@](C)(O)C[C@@H](C)C(=O)[C@H](C)[C@@H](O)[C@]1(C)O [ERYTHROMYCIN] the listed MIC50 is 0.25

For record Cc1onc(-c2ccccc2)c1C(=O)N[C@@H]1C(=O)N2[C@@H]1SC(C)(C)[C@@H]2C(=O)O [OXACILLIN] the listed MIC50 is 0.25
